The origin of these recorded values is patent US20210196796A1.

Molecular target: T1, orthogonal hCD122 receptor (hoRb), hCD122 with H133D and Y134F (human, UniProt P14784 27-550)
T1 sequence: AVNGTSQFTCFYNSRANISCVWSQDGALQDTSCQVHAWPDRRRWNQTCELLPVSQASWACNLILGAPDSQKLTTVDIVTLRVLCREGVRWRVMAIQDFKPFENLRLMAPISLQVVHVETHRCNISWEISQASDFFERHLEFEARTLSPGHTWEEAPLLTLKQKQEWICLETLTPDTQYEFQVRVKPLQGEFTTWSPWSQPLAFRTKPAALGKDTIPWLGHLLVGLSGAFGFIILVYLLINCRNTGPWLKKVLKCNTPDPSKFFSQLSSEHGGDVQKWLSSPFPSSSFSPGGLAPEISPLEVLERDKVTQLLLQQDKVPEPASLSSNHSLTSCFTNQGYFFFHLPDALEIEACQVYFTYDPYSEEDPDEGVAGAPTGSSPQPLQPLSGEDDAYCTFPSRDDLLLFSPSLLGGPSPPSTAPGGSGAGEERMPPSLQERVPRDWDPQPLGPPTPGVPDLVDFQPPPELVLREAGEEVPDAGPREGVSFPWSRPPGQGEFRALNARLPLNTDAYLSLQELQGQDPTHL
Test: cell-based or functional assay
The binders listed here are annotated with their NKL Ortho Proliferation Signal 1:2.
recorded-metric: NKL Ortho Proliferation Signal 1:2

>>> reported("SQVLKQ (ligand) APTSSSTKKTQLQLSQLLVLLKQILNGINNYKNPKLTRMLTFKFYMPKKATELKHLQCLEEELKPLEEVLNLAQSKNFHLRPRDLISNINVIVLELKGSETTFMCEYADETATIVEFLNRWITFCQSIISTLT")
74300
>>> reported("L80F, SQVLKA (ligand) APTSSSTKKTQLQLSQLLVLLKAILNGINNYKNPKLTRMLTFKFYMPKKATELKHLQCLEEELKPLEEVLNLAQSKNFHFRPRDLISNINVIVLELKGSETTFMCEYADETATIVEFLNRWITFCQSIISTLT")
61200
>>> reported("SQVLKY (ligand) APTSSSTKKTQLQLSQLLVLLKYILNGINNYKNPKLTRMLTFKFYMPKKATELKHLQCLEEELKPLEEVLNLAQSKNFHLRPRDLISNINVIVLELKGSETTFMCEYADETATIVEFLNRWITFCQSIISTLT")
52400
>>> reported("SQVLGA (ligand) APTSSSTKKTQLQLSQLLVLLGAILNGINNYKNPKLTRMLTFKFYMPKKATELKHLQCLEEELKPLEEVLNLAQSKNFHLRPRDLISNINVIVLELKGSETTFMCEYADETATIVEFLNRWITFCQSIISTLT")
13500
